# SYSTEM UNDER TEST: Protein arginine N-methyltransferase 5/MEP50 complex (Homo sapiens)
# EXPERIMENTAL PROTOCOL: Inhibition of full-length recombinant PRMT5/full-length recombinant MEP50 (unknown origin) expressed in baculovirus infected Sf21 cells using biotinylated H4R3(Mel) peptide as substrate preincubated for 60 mins followed by substrate addition and measured for 150 minutes in the presence of SAM by methylation assay
ASSAY METRIC: pEC50
Kindly note that pEC50 refers to -log10 of the concentration in mol/L and answer with the value alone.

Please report the recorded pEC50 for CC(=O)N1CCC(Nc2cc(C(=O)N3CC[C@H](N4CCc5ccccc5C4)[C@@H](O)C3)c(F)cn2)CC1 .
9.05
